Recorded pIC50 for compounds tested on MAGL (Homo sapiens, UniProt Q99685), drawn from a number of studies.
Sequence (Q99685 whole entry, species assumed): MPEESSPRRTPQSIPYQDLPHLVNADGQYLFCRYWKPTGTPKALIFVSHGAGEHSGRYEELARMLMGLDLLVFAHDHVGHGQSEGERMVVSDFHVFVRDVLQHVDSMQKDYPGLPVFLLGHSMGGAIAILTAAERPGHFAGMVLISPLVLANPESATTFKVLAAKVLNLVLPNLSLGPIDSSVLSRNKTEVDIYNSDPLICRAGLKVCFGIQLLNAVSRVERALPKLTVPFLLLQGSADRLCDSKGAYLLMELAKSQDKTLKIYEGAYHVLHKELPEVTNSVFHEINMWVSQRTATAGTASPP
Give bare numbers, as −log10 of the molar value.

## Task Param readout= pIC50; system= MAGL (Homo sapiens, UniProt Q99685); entry= `O=C1CO[C@H]2CCN(C(=O)N3CCN(c4ccc(Br)cc4)CC3)C[C@H]2N1` ; returns value.
## Result 5.43

Dear colleague, could you please provide pIC50 for the compounds listed below?
1. O=C(c1ccccc1)N1CCN(C2CN(C(=O)c3ccc4c(ccn4-c4ccc(F)c(F)c4)c3)C2)CC1
2. Cc1nc(N)ccc1C(=O)N1CCN2C[C@@](O)(c3ccc(Cl)cc3)CC[C@@H]2C1
3. O=C(c1ccc(-c2ccccc2)cc1)N1CCN(C2CN(C(=O)c3cscn3)C2)CC1
4. Cc1cc(C(=O)N2CC(N3CCN(C(=O)c4nccs4)CC3)C2)c(C)n1CC(F)(F)F
5. O=C(c1ccc[nH]1)N1CC(N2CCN(C(=O)c3cc4cc(C(F)(F)F)ccc4s3)CC2)C1
6. CC(F)(F)c1ccc(C2CN(C(=O)N3CC[C@@H]4OCC(=O)N[C@@H]4C3)C2)cc1
7. COc1cccc(C(=O)N2CCN3C[C@@](O)(c4ccc(F)c(F)c4F)OC[C@@H]3C2)c1Cl

## Result
7.55
5.53
6.30
5.91
6.74
7.85
6.93
